Origin of measurements: patent US8314098B2

System: IL-12p70 (the complex of IL-12p35 and p40)
Experiment: IL-12p70 production inhibition in macrophages derived from mouse abdomen (IFN-γ/SAC stimulation, ELISA)
Assay type: cell-based
Settings: Macrophage; mouse (Balb/c) abdominal macrophages, 100 ng/mL mouse IFN-γ + 0.05% SAC, overnight; TFA salts tested where prepared as such; read-out: IL-12p70-Inhibitory Activity IC50
EXPERIMENTAL ENDPOINT: log10 of IC50 (log10 of the value in µM)

| CHEMICAL STRING | log10 of IC50 |
| --- | --- |
| C(=N\Nc1cc(N2CCOCC2)n2nc(-c3ccccc3)cc2n1)/c1cccnc1 | -0.39 |
| COCCNc1ccc(-c2cc3nc(N/N=C/c4cccc(C)c4)cc(N4CCOCC4)n3n2)cc1 | -2.22 |
| COc1cccc(/C=N/Nc2cc(N3CCOCC3)n3nc(-c4ccccc4)cc3n2)c1 | -1.40 |
| Cc1cccc(/C=N/Nc2cc(N3CCOCC3)n3nc(OCc4ccccc4)cc3n2)c1 | -0.89 |
| Cc1cccc(/C=N/Nc2cc(N3CC4C[C@H]3CO4)n3nc(-c4ccncc4)cc3n2)c1 | -1.10 |
| Cc1cc(-c2cc3nc(N/N=C/c4c[nH]c5ccccc45)cc(N4CCOCC4)n3n2)no1 | -1.80 |
| Cc1cccc(/C=N/Nc2cc(N3CCOCC3)n3nc(-c4ccc(C)nc4)cc3n2)c1 | -2.14 |
| Fc1cccc(/C=N/Nc2cc(N3CCOCC3)n3nc(-c4ccncc4)cc3n2)c1 | -0.85 |
| Cc1ccc(-c2nn3c(N4CCOCC4)cc(N/N=C/c4cccc(C)c4)nc3c2Br)cc1 | -0.91 |
| Cc1cccc(/C=N/Nc2cc(N3CCOCC3)n3nc(-c4cccnc4)cc3n2)c1 | -1.96 |

###

Tested on: IL-12p70 (the complex of IL-12p35 and p40)
Experiment: IL-12p70 production inhibition in macrophages derived from mouse abdomen (IFN-γ/SAC stimulation, ELISA)
Format: cell-based
Details: Macrophage; mouse (Balb/c) abdominal macrophages, 100 ng/mL mouse IFN-γ + 0.05% SAC, overnight; TFA salts tested where prepared as such; read-out: IL-12p70-Inhibitory Activity IC50
// log10 of IC50 lookup, one value per entry
EXPERIMENTAL ENDPOINT: log10 of IC50 (log10 of the value in nM)

| COMPOUND | ASSAYED SYSTEM | log10 of IC50 |
| --- | --- | --- |
| C(=N\Nc1cc(N2CCOCC2)n2nc(-c3ccncc3)cc2n1)/c1c[nH]c2ncccc12 [Compound 126] | IL-12p70 (the complex of IL-12p35 and p40) | 2.04 |
| C(=N\Nc1cc(N2CCOCC2)n2nc(-c3ccncc3)cc2n1)/c1ccc2c(c1)OCCO2 [Compound 113] | IL-12p70 (the complex of IL-12p35 and p40) | 1.99 |
| Cc1cccc(/C=N/Nc2cc(N3CCOCC3)n3nc(-c4ccc(N5CCNCC5)cc4)cc3n2)c1 [Compound 21] | IL-12p70 (the complex of IL-12p35 and p40) | 1.34 |
| C(=N\Nc1cc(N2CCOCC2)n2nc(-c3ccccc3)cc2n1)/c1cccs1 [Compound 61] | IL-12p70 (the complex of IL-12p35 and p40) | 2.57 |
| Cc1cccc(/C=N/Nc2cc(N3CCOCC3)n3nc(-c4ccco4)cc3n2)c1 [Compound 33] | IL-12p70 (the complex of IL-12p35 and p40) | 1.23 |
| C(=N\Nc1cc(N2CCOCC2)n2nc(N3CCOCC3)cc2n1)/c1c[nH]c2ccccc12 [Compound 128] | IL-12p70 (the complex of IL-12p35 and p40) | 2.15 |
| C(=N\Nc1cc(N2CCOCC2)n2nc(-c3cccnc3)cc2n1)/c1ccc2[nH]ccc2c1 [Compound 103] | IL-12p70 (the complex of IL-12p35 and p40) | 2.20 |
| C(=N\Nc1cc(N2CCOCC2)n2nc(-c3ccncc3)cc2n1)/c1ccc2[nH]ccc2c1 [Compound 104] | IL-12p70 (the complex of IL-12p35 and p40) | 2.00 |
| C(=N\Nc1cc(N2CCOCC2)n2nc(-c3ccncn3)cc2n1)/c1c[nH]c2ccccc12 [Compound 120] | IL-12p70 (the complex of IL-12p35 and p40) | 1.60 |
| Cc1ccc(-c2cc3nc(N/N=C/c4c[nH]c5ccccc45)cc(N4CCOCC4)n3n2)cn1 [Compound 112] | IL-12p70 (the complex of IL-12p35 and p40) | 0.88 |
| C(=N\Nc1cc(N2CCOCC2)n2nc(-c3ccncc3)cc2n1)/c1coc2ccccc12 [Compound 95] | IL-12p70 (the complex of IL-12p35 and p40) | 1.45 |
| C(=N\Nc1cc(N2CCOCC2)n2nc(-c3ccccc3)cc2n1)/c1c[nH]c2ccccc12 [Compound 2] | IL-12p70 (the complex of IL-12p35 and p40) | 1.52 |
| Cc1cccc(/C=N/Nc2cc(N3CCOCC3)n3nc(-c4ccc(N5CCSCC5)cc4)cc3n2)c1 [Compound 69] | IL-12p70 (the complex of IL-12p35 and p40) | 0.91 |
| COc1ccc(C)cc1/C=N/Nc1cc(N2CCOCC2)n2nc(-c3ccccc3)cc2n1 [Compound 40] | IL-12p70 (the complex of IL-12p35 and p40) | 1.81 |
| Cc1[nH]c2ccc(/C=N/Nc3cc(N4CCOCC4)n4nc(-c5cccnc5)cc4n3)cc2c1C [Compound 105] | IL-12p70 (the complex of IL-12p35 and p40) | 1.95 |
| COc1ccc(-c2cc3nc(N/N=C/c4cccc(C)c4)cc(N4CCOCC4)n3n2)cc1 [Compound 15] | IL-12p70 (the complex of IL-12p35 and p40) | 1.04 |
| C(=N\Nc1cc(N2CCOCC2)n2nc(-c3ccncc3)cc2n1)/c1ccsc1 [Compound 91] | IL-12p70 (the complex of IL-12p35 and p40) | 1.68 |
| Cc1cccc(/C=N/Nc2cc(N3CCOCC3)n3ncc(Br)c3n2)c1 [Compound 11] | IL-12p70 (the complex of IL-12p35 and p40) | 2.53 |
| C(=N\Nc1cc(N2CCOCC2)n2nc(-c3cccnc3)cc2n1)/c1c[nH]c2ccccc12 [Compound 82] | IL-12p70 (the complex of IL-12p35 and p40) | 0.61 |
| CC(=O)N1CCC(c2cc3nc(N/N=C/c4cccc(C)c4)cc(N4CCOCC4)n3n2)CC1 [Compound 133] | IL-12p70 (the complex of IL-12p35 and p40) | 1.98 |
| CCCCC(=O)N1CCN(c2ccc(-c3cc4nc(N/N=C/c5cccc(C)c5)cc(N5CCOCC5)n4n3)cc2)CC1 [Compound 31] | IL-12p70 (the complex of IL-12p35 and p40) | 1.26 |
| COc1ccc(/C=N/Nc2cc(N3CCOCC3)n3nc(-c4ccccc4)cc3n2)cc1 [Compound 30] | IL-12p70 (the complex of IL-12p35 and p40) | 2.26 |
